- Test system: HCoV-229E
- protocol: Antiviral activity and toxicity against HCoV-229E
- Format: cell-based
- condition context: Human coronavirus 229E
recorded metric: pEC50
The value called pEC50 is obtained by taking minus log10 of the concentration in mol/L.

Quick check: pEC50 of CCC(CC)COC(=O)[C@H](C)N[P@](=O)(OC[C@H]1O[C@@](C#N)(c2ccc3c(N)ncnn23)[C@H](O)[C@@H]1O)Oc1ccccc1 [RDV, Remdesivir] ?
7.15
